Measured RU by item
target desc: gEgI WT: HSV2 gEgI heterodimer comprising gE and gI wildtype ectodomains (HSV2, UniProt P89475 21-416; P06764 21-256)
assay method text: SPR binning; gEgI captured by mAb 5
Quick note: give the figure in RU, leave out the unit.

mAb clone 19 (antibody, V domains shown) VH: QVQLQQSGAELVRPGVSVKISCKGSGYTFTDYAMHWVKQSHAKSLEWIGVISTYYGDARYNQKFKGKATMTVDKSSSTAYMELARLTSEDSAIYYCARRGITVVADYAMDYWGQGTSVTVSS VL: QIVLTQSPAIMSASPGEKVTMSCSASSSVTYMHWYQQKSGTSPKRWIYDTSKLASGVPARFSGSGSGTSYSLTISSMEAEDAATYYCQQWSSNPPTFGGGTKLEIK    17.2
mAb clone 24 (antibody, V domains shown) VH: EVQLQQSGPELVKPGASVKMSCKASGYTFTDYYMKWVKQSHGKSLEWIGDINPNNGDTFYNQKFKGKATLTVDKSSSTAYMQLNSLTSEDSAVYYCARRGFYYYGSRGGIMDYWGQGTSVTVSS VL: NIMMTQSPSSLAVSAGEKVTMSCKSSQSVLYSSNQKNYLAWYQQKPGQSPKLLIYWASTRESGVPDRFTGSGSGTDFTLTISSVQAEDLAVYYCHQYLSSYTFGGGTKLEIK    34.4

Next item in the queue.
Challenge: Value lookup for RU; key = mAb clone 15 (antibody, V domains shown) VH: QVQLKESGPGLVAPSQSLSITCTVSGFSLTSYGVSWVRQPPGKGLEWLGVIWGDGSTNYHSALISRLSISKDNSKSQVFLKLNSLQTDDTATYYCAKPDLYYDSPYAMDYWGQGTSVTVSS VL: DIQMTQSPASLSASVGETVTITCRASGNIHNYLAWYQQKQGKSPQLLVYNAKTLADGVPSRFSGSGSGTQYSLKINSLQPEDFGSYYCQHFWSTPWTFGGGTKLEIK
Response given: 13.5
